- test_target: Estrogen receptor beta (Mus musculus)
- Sequence (O08537 whole entry): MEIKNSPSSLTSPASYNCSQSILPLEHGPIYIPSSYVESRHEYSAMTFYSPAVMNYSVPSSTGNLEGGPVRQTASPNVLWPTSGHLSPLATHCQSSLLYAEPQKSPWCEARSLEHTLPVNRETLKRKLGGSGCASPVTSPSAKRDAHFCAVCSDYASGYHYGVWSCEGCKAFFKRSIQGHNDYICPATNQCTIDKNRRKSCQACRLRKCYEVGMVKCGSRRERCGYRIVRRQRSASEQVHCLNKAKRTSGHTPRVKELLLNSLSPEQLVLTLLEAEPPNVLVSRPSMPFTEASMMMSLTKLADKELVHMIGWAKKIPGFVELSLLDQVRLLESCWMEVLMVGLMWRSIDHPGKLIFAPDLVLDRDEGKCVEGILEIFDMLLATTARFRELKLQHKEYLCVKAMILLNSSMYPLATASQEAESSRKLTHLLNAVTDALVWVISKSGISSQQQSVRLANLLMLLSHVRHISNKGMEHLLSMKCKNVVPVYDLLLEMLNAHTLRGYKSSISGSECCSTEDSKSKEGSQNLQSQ
- test_details: Binding affinity to ERbeta receptor in mouse COS7 cells by competitive binding assay
assay_endpoint: Ki

query: Ki for Brc1cc2c(cc1[C@@H]1Nc3ccccc3[C@@H]3C=CC[C@@H]31)OCO2 ?
result: > 10 µM

Entry source: BindingDB's records for doi:10.1038/nchembio.168
